These data points were gathered from PubChem BioAssay AID1963847.

As shown below, each of these molecules has a reported viability, T/C value.
tested on: 415267-285-R-J2-PDC complex spheroid viability; assay: Anticancer human tumor 415267-285-R-J2-PDC patient-derived breast carcinoma cell line growth inhibition [POLQ]; settings: second compound 0.316 µM; first compound 0.0316 µM; hits give low values
A number alone suffices; assume %.

Examples with answers:
Query: Tell me its viability, T/C given O=C(c1cc(Cc2n[nH]c(=O)c3ccccc23)ccc1F)N1CCN(C(=O)C2CC2)CC1 + COC1C(OC(N)=O)C(O)C(Oc2ccc3c(O)c(NC(=O)c4ccc(O)c(CC=C(C)C)c4)c(=O)oc3c2C)OC1(C)C as the entry.
Result: 93.5

Query: Tell me its viability, T/C given COc1cccc(OCCCN)c1-c1cc(Nc2cnc(C#N)cn2)n[nH]1 + Cc1cccc(N(C)C(=O)C2C(O)CCN2c2nc(C)cc(C(F)(F)F)c2C#N)c1 as the entry.
Result: 5.56

Query: Tell me its viability, T/C given CCc1c2c(nc3ccc(O)cc13)-c1cc3c(c(=O)n1C2)COC(=O)[C@]3(O)CC + Cc1cccc(N(C)C(=O)C2C(O)CCN2c2nc(C)cc(C(F)(F)F)c2C#N)c1 as the entry.
Result: 5.27

Query: Tell me its viability, T/C given COc1cc(C2c3cc4c(cc3C(OC3OC5COC(C)OC5C(O)C3O)C3COC(=O)C23)OCO4)cc(OC)c1O (stereo unspecified) + Cc1cccc(N(C)C(=O)C2C(O)CCN2c2nc(C)cc(C(F)(F)F)c2C#N)c1 as the entry.
Result: 96.4

Query: Tell me its viability, T/C given CNCc1ccc(-c2[nH]c3cc(F)cc4c3c2CCNC4=O)cc1 + Nc1ccc(C#CCN(C(=O)Cc2ncc(C(F)(F)F)cc2C(F)(F)F)c2ccc(F)cc2)nn1 as the entry.
Result: 98.9

---
Query: Tell me its viability, T/C given CC[C@@]1(O)C(=O)OCc2c1cc1n(c2=O)Cc2cc3c(CN(C)C)c(O)ccc3nc2-1 + Nc1ccc(C#CCN(C(=O)Cc2ncc(C(F)(F)F)cc2C(F)(F)F)c2ccc(F)cc2)nn1 as the entry.
Result: 38.5

Query: Tell me its viability, T/C given C=CC(=O)N1CCN(c2nc(=O)n(-c3c(C)ccnc3C(C)C)c3nc(-c4c(O)cccc4F)c(F)cc23)C(C)C1 (stereo unspecified) + Nc1ccc(C#CCN(C(=O)Cc2ncc(C(F)(F)F)cc2C(F)(F)F)c2ccc(F)cc2)nn1 as the entry.
Result: 97.5

Query: Tell me its viability, T/C given COc1cccc2c1C(=O)c1c(O)c3c(c(O)c1C2=O)CC(O)(C(=O)CO)CC3OC1CC(N)C(O)C(C)O1 (stereo unspecified) + Nc1ccc(C#CCN(C(=O)Cc2ncc(C(F)(F)F)cc2C(F)(F)F)c2ccc(F)cc2)nn1 as the entry.
Result: 80.6

Query: Tell me its viability, T/C given C=CC(=O)N1CCN(c2nc(=O)n(-c3c(C)ccnc3C(C)C)c3nc(-c4c(O)cccc4F)c(F)cc23)C(C)C1 (stereo unspecified) + COC1C(OC(N)=O)C(O)C(Oc2ccc3c(O)c(NC(=O)c4ccc(O)c(CC=C(C)C)c4)c(=O)oc3c2C)OC1(C)C as the entry.
Result: 103

Query: Tell me its viability, T/C given C=CC(=O)N1CCN(c2nc(=O)n(-c3c(C)ccnc3C(C)C)c3nc(-c4c(O)cccc4F)c(F)cc23)C(C)C1 (stereo unspecified) + Cc1cccc(N(C)C(=O)C2C(O)CCN2c2nc(C)cc(C(F)(F)F)c2C#N)c1 as the entry.
Result: 103

Query: Tell me its viability, T/C given O=C(c1cc(Cc2n[nH]c(=O)c3ccccc23)ccc1F)N1CCN(C(=O)C2CC2)CC1 + Nc1ccc(C#CCN(C(=O)Cc2ncc(C(F)(F)F)cc2C(F)(F)F)c2ccc(F)cc2)nn1 as the entry.
Result: 106

###

system: 415267-285-R-J2-PDC complex spheroid viability; test: Anticancer human tumor 415267-285-R-J2-PDC cell line growth inhibition [POLQ]; conditions: second compound 0.1 µM; first compound 0.0316 µM; hits give low values;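 further: luminescence used as stand-in measure of viable cells; spheroids exposed to compounds for one week before readout; 100% = DMSO vehicle control viability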
assay_metric: viability, T/C (%)
A number alone suffices; assume %.

Query: Under 415267-285-R-J2-PDC complex spheroid viability: report viability, T/C of COc1ccc([C@@H](O)c2cc(-c3ncnc4cc(N5CCOCC5)ccc34)c(F)cc2Cl)nn1 + COC1C(OC(N)=O)C(O)C(Oc2ccc3c(O)c(NC(=O)c4ccc(O)c(CC=C(C)C)c4)c(=O)oc3c2C)OC1(C)C .
Result: 95.3

Query: Under 415267-285-R-J2-PDC complex spheroid viability: report viability, T/C of O=C(Nc1ccc(O)c(NS(=O)(=O)c2ccc(F)cc2)c1)c1ccc(-c2ccccc2)cc1 + Nc1ccc(C#CCN(C(=O)Cc2ncc(C(F)(F)F)cc2C(F)(F)F)c2ccc(F)cc2)nn1 .
Result: 104

Query: Under 415267-285-R-J2-PDC complex spheroid viability: report viability, T/C of CC1COCCN1c1cc(C2(S(C)(=N)=O)CC2)nc(-c2ccnc3[nH]ccc23)n1 (stereo not given) + Cc1cccc(N(C)C(=O)C2C(O)CCN2c2nc(C)cc(C(F)(F)F)c2C#N)c1 .
Result: 92.8

Query: Under 415267-285-R-J2-PDC complex spheroid viability: report viability, T/C of CC[C@@]1(O)C(=O)OCc2c1cc1n(c2=O)Cc2cc3c(CN(C)C)c(O)ccc3nc2-1 + Cc1cccc(N(C)C(=O)C2C(O)CCN2c2nc(C)cc(C(F)(F)F)c2C#N)c1 .
Result: 19.9

Query: Under 415267-285-R-J2-PDC complex spheroid viability: report viability, T/C of CCc1cc2c(N3CCc4c(cc(Cn5ccnc5)cc4-c4cn(C)nc4C(F)(F)F)C3=O)ccnc2c(OC)n1 + COC1C(OC(N)=O)C(O)C(Oc2ccc3c(O)c(NC(=O)c4ccc(O)c(CC=C(C)C)c4)c(=O)oc3c2C)OC1(C)C .
Result: 89.4

Query: Under 415267-285-R-J2-PDC complex spheroid viability: report viability, T/C of CCc1c2c(nc3ccc(O)cc13)-c1cc3c(c(=O)n1C2)COC(=O)[C@]3(O)CC + Cc1cccc(N(C)C(=O)C2C(O)CCN2c2nc(C)cc(C(F)(F)F)c2C#N)c1 .
Result: 5.47

Query: Under 415267-285-R-J2-PDC complex spheroid viability: report viability, T/C of C=CCn1c(=O)c2cnc(Nc3ccc(N4CCN(C)CC4)cc3)nc2n1-c1cccc(C(C)(C)O)n1 + Nc1ccc(C#CCN(C(=O)Cc2ncc(C(F)(F)F)cc2C(F)(F)F)c2ccc(F)cc2)nn1 .
Result: 102

Query: Under 415267-285-R-J2-PDC complex spheroid viability: report viability, T/C of COc1ccc([C@@H](O)c2cc(-c3ncnc4cc(N5CCOCC5)ccc34)c(F)cc2Cl)nn1 + Nc1ccc(C#CCN(C(=O)Cc2ncc(C(F)(F)F)cc2C(F)(F)F)c2ccc(F)cc2)nn1 .
Result: 108

Query: Under 415267-285-R-J2-PDC complex spheroid viability: report viability, T/C of COc1cc(C2c3cc4c(cc3C(OC3OC5COC(C)OC5C(O)C3O)C3COC(=O)C23)OCO4)cc(OC)c1O (stereo not given) + Nc1ccc(C#CCN(C(=O)Cc2ncc(C(F)(F)F)cc2C(F)(F)F)c2ccc(F)cc2)nn1 .
Result: 106

Then there is this molecule:
Query: Under 415267-285-R-J2-PDC complex spheroid viability: report viability, T/C of O=C(Nc1ccc(O)c(NS(=O)(=O)c2ccc(F)cc2)c1)c1ccc(-c2ccccc2)cc1 + Cc1cccc(N(C)C(=O)C2C(O)CCN2c2nc(C)cc(C(F)(F)F)c2C#N)c1 .
Result: 98.5

###

system: 415267-285-R-J2-PDC complex spheroid viability; assay: Anticancer human tumor 415267-285-R-J2-PDC cell line growth inhibition [POLQ]; conditions: second compound 0.0316 µM; first compound 1 µM; hits give low values;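 further: luminescence used as stand-in measure of viable cells; spheroids exposed to compounds for one week before readout; 100% = DMSO vehicle control viability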
As shown below, each of these compounds has a reported viability, T/C value.
A number alone suffices; assume %.

Examples with answers:
Query: Tell me its viability, T/C given CC1COCCN1c1cc(C2(S(C)(=N)=O)CC2)nc(-c2ccnc3[nH]ccc23)n1 (stereo not given) + Nc1ccc(C#CCN(C(=O)Cc2ncc(C(F)(F)F)cc2C(F)(F)F)c2ccc(F)cc2)nn1 as the entry.
Result: 14.2

Query: Tell me its viability, T/C given COc1cc(C2c3cc4c(cc3C(OC3OC5COC(C)OC5C(O)C3O)C3COC(=O)C23)OCO4)cc(OC)c1O (stereo not given) + Nc1ccc(C#CCN(C(=O)Cc2ncc(C(F)(F)F)cc2C(F)(F)F)c2ccc(F)cc2)nn1 as the entry.
Result: 6.3

Query: Tell me its viability, T/C given O=c1[nH]cc(F)c(=O)[nH]1 + COC1C(OC(N)=O)C(O)C(Oc2ccc3c(O)c(NC(=O)c4ccc(O)c(CC=C(C)C)c4)c(=O)oc3c2C)OC1(C)C as the entry.
Result: 31.1

Query: Tell me its viability, T/C given CC(C)n1c(=O)n(C)c2cnc3cc(F)c(-c4ccc(OCCCN5CCCCC5)nc4)cc3c21 + Cc1cccc(N(C)C(=O)C2C(O)CCN2c2nc(C)cc(C(F)(F)F)c2C#N)c1 as the entry.
Result: 110

---
Query: Tell me its viability, T/C given CCCS(=O)(=O)Nc1ccc(F)c(C(=O)c2c[nH]c3ncc(-c4ccc(Cl)cc4)cc23)c1F + Nc1ccc(C#CCN(C(=O)Cc2ncc(C(F)(F)F)cc2C(F)(F)F)c2ccc(F)cc2)nn1 as the entry.
Result: 90.8

Query: Tell me its viability, T/C given CC1COCCN1c1cc(C2(S(C)(=N)=O)CC2)nc(-c2ccnc3[nH]ccc23)n1 (stereo not given) + COC1C(OC(N)=O)C(O)C(Oc2ccc3c(O)c(NC(=O)c4ccc(O)c(CC=C(C)C)c4)c(=O)oc3c2C)OC1(C)C as the entry.
Result: 14.9

Query: Tell me its viability, T/C given C#Cc1c(F)ccc2cc(O)cc(-c3ncc4c(N5CC6CCC(C5)N6)nc(OCC56CCCN5CC(F)C6)nc4c3F)c12 (stereo not given) + Cc1cccc(N(C)C(=O)C2C(O)CCN2c2nc(C)cc(C(F)(F)F)c2C#N)c1 as the entry.
Result: 104

Query: Tell me its viability, T/C given CC(C)n1c(=O)n(C)c2cnc3cc(F)c(-c4ccc(OCCCN5CCCCC5)nc4)cc3c21 + COC1C(OC(N)=O)C(O)C(Oc2ccc3c(O)c(NC(=O)c4ccc(O)c(CC=C(C)C)c4)c(=O)oc3c2C)OC1(C)C as the entry.
Result: 94.1

Query: Tell me its viability, T/C given COc1cccc(OCCCN)c1-c1cc(Nc2cnc(C#N)cn2)n[nH]1 + Nc1ccc(C#CCN(C(=O)Cc2ncc(C(F)(F)F)cc2C(F)(F)F)c2ccc(F)cc2)nn1 as the entry.
Result: 4.9

Query: Tell me its viability, T/C given COc1cccc(OCCCN)c1-c1cc(Nc2cnc(C#N)cn2)n[nH]1 + COC1C(OC(N)=O)C(O)C(Oc2ccc3c(O)c(NC(=O)c4ccc(O)c(CC=C(C)C)c4)c(=O)oc3c2C)OC1(C)C as the entry.
Result: 4.81

Query: Tell me its viability, T/C given COc1cc2cc(C(=O)CCC(=O)O)sc2cc1OC + Nc1ccc(C#CCN(C(=O)Cc2ncc(C(F)(F)F)cc2C(F)(F)F)c2ccc(F)cc2)nn1 as the entry.
Result: 97.3

Query: Tell me its viability, T/C given CCc1cc2c(N3CCc4c(cc(Cn5ccnc5)cc4-c4cn(C)nc4C(F)(F)F)C3=O)cc(C)nc2c(OC)n1 + COC1C(OC(N)=O)C(O)C(Oc2ccc3c(O)c(NC(=O)c4ccc(O)c(CC=C(C)C)c4)c(=O)oc3c2C)OC1(C)C as the entry.
Result: 76.1
